Listing: GI50 of selected compounds
Tested on: K562
Assay explanation: Cytotoxicity against human K-562 cells after 48 hrs by SRB assay
Type: functional
Run parameters: K562, 48 h
Dear colleague, please return just the value in µM, with no unit written.

Sample answers from the record:
Compound | GI50, µM
CCCCOC(=O)[C@H]1O[C@@H](O[C@H]2CC[C@]3(C)[C@H]4CC=C5[C@@H]6CC(C)(C)CC[C@]6(C(=O)O)CC[C@@]5(C)[C@]4(C)CC[C@H]3C2(C)C)[C@H](O[C@@H]2O[C@H](CO)[C@@H](O)[C@H](O)[C@H]2O)[C@@H](O[C@@H]2O[C@H](CO)[C@H](O)[C@H](O)[C@H]2O)[C@@H]1O | 23.2
CCCCOC(=O)[C@H]1O[C@@H](O[C@H]2CC[C@]3(C)[C@H]4CC=C5[C@@H]6CC(C)(C)CC[C@]6(C(=O)O[C@@H]6O[C@H](CO)[C@@H](O)[C@H](O)[C@H]6O)CC[C@@]5(C)[C@]4(C)CC[C@H]3C2(C)C)[C@H](O)[C@@H](O)[C@@H]1O | 1.58
COC(=O)[C@H]1O[C@@H](O[C@H]2CC[C@]3(C)[C@H]4CC=C5[C@@H]6CC(C)(C)CC[C@]6(C(=O)O)CC[C@@]5(C)[C@]4(C)CC[C@H]3C2(C)C)[C@H](O)[C@@H](O[C@@H]2O[C@H](CO)[C@H](O)[C@H](O)[C@H]2O)[C@@H]1O | 8.17

Note: attention shifts to another entry.
### Prompt # lookup: GI50 of CC1(C)CC[C@]2(C(=O)O)CC[C@]3(C)C(=CC[C@@H]4[C@@]5(C)CC[C@H](O[C@@H]6O[C@H](C(=O)O)[C@@H](O)[C@H](O[C@@H]7O[C@H](CO)[C@H](O)[C@H](O)[C@H]7O)[C@H]6O[C@@H]6O[C@H](CO)[C@@H](O)[C@H](O)[C@H]6O)C(C)(C)[C@@H]5CC[C@]43C)[C@@H]2C1 [CALENDULAGYCOSIDE B]
### Response 81.1
